system: S. aureus Met-R multiresistant strains; experiment: MIC determination (NCCLS broth microdilution), methicillin-resistant multiresistant S. aureus strains; assay type: cell-based, Staphylococcus aureus; settings: Staphylococcus aureus, Strain 32; antibiotype Oxa, Cip, Clin, Ery, Gm, SXT, Rif; read-out: MIC
measured property: MIC (µg/mL)
Answer in µg/mL, number only, no unit symbol.

O=C(N[C@H](CO)[C@H](O)c1ccc([N+](=O)[O-])cc1)C(Cl)Cl	64

Query string: What does the record list as MIC for CCC[C@@H]1C[C@@H](C(=O)N[C@@H]([C@H]2O[C@H](SC)[C@H](O)[C@@H](O)[C@H]2O)[C@H](C)Cl)N(C)C1 ?
Result string: 64

* * *

test system: S. aureus Met-R multiresistant strains; assay: MIC determination (NCCLS broth microdilution), methicillin-resistant multiresistant S. aureus strains; assay type: cell-based, Staphylococcus aureus; details: Staphylococcus aureus, Strain 21; antibiotype Oxa, Cip, Clin, Ery, Gm; read-out: MIC
measured property: MIC

COc1cccc(OC)c1C(=O)N[C@@H]1C(=O)N2[C@@H]1SC(C)(C)[C@@H]2C(=O)O [Meth, methicilline]	> 64 µg/mL
CS(=O)(=O)c1ccc([C@@H](O)[C@@H](CO)NC(=O)C(Cl)Cl)cc1 [Thiamphenicol, thiamphenicol]	> 64 µg/mL
CCC[C@@H]1C[C@@H](C(=O)N[C@@H]([C@H]2O[C@H](SC)[C@H](O)[C@@H](O)[C@H]2O)[C@H](C)Cl)N(C)C1 [Clindamycin, clindamycin]	> 64 µg/mL
CC[C@H]1OC(=O)[C@H](C)[C@@H](O[C@H]2C[C@@](C)(OC)[C@@H](O)[C@H](C)O2)[C@H](C)[C@@H](O[C@@H]2O[C@H](C)C[C@H](N(C)C)[C@H]2O)[C@](C)(O)C[C@@H](C)C(=O)[C@H](C)[C@@H](O)[C@]1(C)O [Erythromycin, erythromycin]	> 64 µg/mL

For the next question, use this compound.
Query string: Field request: MIC | item: O=C(N[C@H](CO)[C@H](O)c1ccc([N+](=O)[O-])cc1)C(Cl)Cl [Cloramphenicol, cloramphenicol]
Result string: 64 µg/mL

* * *

tested on: S. aureus Met-R multiresistant strains; assay: MIC determination (NCCLS broth microdilution), methicillin-resistant multiresistant S. aureus strains; format: cell-based, Staphylococcus aureus; settings: Staphylococcus aureus; S. aureus (50) Met-R; read-out: MIC 50%
The molecules listed here are annotated with their MIC50.

Use the examples below as a reference point.
CS(=O)(=O)c1ccc([C@@H](O)[C@@H](CO)NC(=O)C(Cl)Cl)cc1	16 µg/mL
CCC[C@@H]1C[C@@H](C(=O)N[C@@H]([C@H]2O[C@H](SC)[C@H](O)[C@@H](O)[C@H]2O)[C@H](C)Cl)N(C)C1	> 64 µg/mL
O=C(N[C@H](CO)[C@H](O)c1ccc([N+](=O)[O-])cc1)C(Cl)Cl	8 µg/mL

Turning now to a further record.
Query string: Param item = CC[C@H]1OC(=O)[C@H](C)[C@@H](O[C@H]2C[C@@](C)(OC)[C@@H](O)[C@H](C)O2)[C@H](C)[C@@H](O[C@@H]2O[C@H](C)C[C@H](N(C)C)[C@H]2O)[C@](C)(O)C[C@@H](C)C(=O)[C@H](C)[C@@H](O)[C@]1(C)O ; retrieve measured MIC50.
Result string: > 64 µg/mL

* * *

system: S. aureus Met-R multiresistant strains; assay: MIC determination (NCCLS broth microdilution), methicillin-resistant multiresistant S. aureus strains; assay type: cell-based, Staphylococcus aureus; settings: Staphylococcus aureus, Strain 50; antibiotype Oxa, Cip, Clin, Ery, Gm, Rif, Dox; read-out: MIC
measured property: MIC

Worked cases, MIC given:
CCC[C@@H]1C[C@@H](C(=O)N[C@@H]([C@H]2O[C@H](SC)[C@H](O)[C@@H](O)[C@H]2O)[C@H](C)Cl)N(C)C1	> 64 µg/mL
CS(=O)(=O)c1ccc([C@@H](O)[C@@H](CO)NC(=O)C(Cl)Cl)cc1	> 64 µg/mL
CC[C@H]1OC(=O)[C@H](C)[C@@H](O[C@H]2C[C@@](C)(OC)[C@@H](O)[C@H](C)O2)[C@H](C)[C@@H](O[C@@H]2O[C@H](C)C[C@H](N(C)C)[C@H]2O)[C@](C)(O)C[C@@H](C)C(=O)[C@H](C)[C@@H](O)[C@]1(C)O	> 64 µg/mL
O=C(N[C@H](CO)[C@H](O)c1ccc([N+](=O)[O-])cc1)C(Cl)Cl	64 µg/mL

Now for a further molecule.
Query string: Give the measured MIC of COc1cccc(OC)c1C(=O)N[C@@H]1C(=O)N2[C@@H]1SC(C)(C)[C@@H]2C(=O)O .
Result string: > 64 µg/mL

* * *

system: S. aureus Met-R multiresistant strains; test: MIC determination (NCCLS broth microdilution), methicillin-resistant multiresistant S. aureus strains; type: cell-based, Staphylococcus aureus; settings: Staphylococcus aureus, Strain 41; antibiotype Oxa, Cip, Clin, Ery; read-out: MIC
Measured MIC, listed per entry for reference.
The figure you give is taken to be in µg/mL; do not add the unit.

Recorded MIC, per entry:
CS(=O)(=O)c1ccc([C@@H](O)[C@@H](CO)NC(=O)C(Cl)Cl)cc1	16
CCC[C@@H]1C[C@@H](C(=O)N[C@@H]([C@H]2O[C@H](SC)[C@H](O)[C@@H](O)[C@H]2O)[C@H](C)Cl)N(C)C1	64

Query string: State its MIC on S. aureus Met-R multiresistant strains: O=C(N[C@H](CO)[C@H](O)c1ccc([N+](=O)[O-])cc1)C(Cl)Cl
Result string: 8

* * *

A collection of compounds and their measured MIC
test system: S. aureus Met-R multiresistant strains; assay: MIC determination (NCCLS broth microdilution), methicillin-resistant multiresistant S. aureus strains; type: cell-based, Staphylococcus aureus; settings: Staphylococcus aureus, Strain 13; antibiotype Oxa, Cip, Clin, Ery; read-out: MIC
Give a bare numeral; the unit µg/mL is implied.

O=C(N[C@H](CO)[C@H](O)c1ccc([N+](=O)[O-])cc1)C(Cl)Cl [Cloramphenicol, cloramphenicol]	8

Now let's try a different one.
Query string: Data request, read-out MIC, for CS(=O)(=O)c1ccc([C@@H](O)[C@@H](CO)NC(=O)C(Cl)Cl)cc1 [Thiamphenicol, thiamphenicol]
Result string: 16

* * *

system: S. aureus Met-R multiresistant strains; test: MIC determination (NCCLS broth microdilution), methicillin-resistant multiresistant S. aureus strains; type: cell-based, Staphylococcus aureus; settings: Staphylococcus aureus; S. aureus (50) Met-R; read-out: MIC 90%
measured property: MIC90

CS(=O)(=O)c1ccc([C@@H](O)[C@@H](CO)NC(=O)C(Cl)Cl)cc1	> 64 µg/mL
CCC[C@@H]1C[C@@H](C(=O)N[C@@H]([C@H]2O[C@H](SC)[C@H](O)[C@@H](O)[C@H]2O)[C@H](C)Cl)N(C)C1	> 64 µg/mL
CC[C@H]1OC(=O)[C@H](C)[C@@H](O[C@H]2C[C@@](C)(OC)[C@@H](O)[C@H](C)O2)[C@H](C)[C@@H](O[C@@H]2O[C@H](C)C[C@H](N(C)C)[C@H]2O)[C@](C)(O)C[C@@H](C)C(=O)[C@H](C)[C@@H](O)[C@]1(C)O	> 64 µg/mL

Here's the next entry for you.
Query string: Requested read-out: MIC90. Entry: O=C(N[C@H](CO)[C@H](O)c1ccc([N+](=O)[O-])cc1)C(Cl)Cl
Result string: 64 µg/mL

* * *

Measured MIC of individual entries
system: S. aureus Met-R multiresistant strains; experiment: MIC determination (NCCLS broth microdilution), methicillin-resistant multiresistant S. aureus strains; assay type: cell-based, Staphylococcus aureus; settings: Staphylococcus aureus, Strain 2; antibiotype Oxa, Clin, Ery, Fos; read-out: MIC

Take a look at these entries with their results.
CC[C@H]1OC(=O)[C@H](C)[C@@H](O[C@H]2C[C@@](C)(OC)[C@@H](O)[C@H](C)O2)[C@H](C)[C@@H](O[C@@H]2O[C@H](C)C[C@H](N(C)C)[C@H]2O)[C@](C)(O)C[C@@H](C)C(=O)[C@H](C)[C@@H](O)[C@]1(C)O	> 64 µg/mL
CCC[C@@H]1C[C@@H](C(=O)N[C@@H]([C@H]2O[C@H](SC)[C@H](O)[C@@H](O)[C@H]2O)[C@H](C)Cl)N(C)C1	> 64 µg/mL
CS(=O)(=O)c1ccc([C@@H](O)[C@@H](CO)NC(=O)C(Cl)Cl)cc1	> 64 µg/mL
COc1cccc(OC)c1C(=O)N[C@@H]1C(=O)N2[C@@H]1SC(C)(C)[C@@H]2C(=O)O	> 64 µg/mL

Turning now to a further record.
Query string: Need MIC, item O=C(N[C@H](CO)[C@H](O)c1ccc([N+](=O)[O-])cc1)C(Cl)Cl
Result string: 64 µg/mL
